The origin of these recorded values is PubChem BioAssay (NCI).

Assay: NCI Yeast Anticancer Drug Screen. Data for the rad50 strain (AID 155)
Conditions: S. cerevisiae rad50 strain growth inhibition; at 11.0 µM
Experimental: Growth inhibition of yeast strains with defined genetic alterations is measured as a screen for potential anti-cancer activity. Selected strains with alterations in DNA damage repair or cell cycle control were exposed to compounds and growth inhibition was measured relative to vehicle treated controls. The strain used in this assay is rad50
This is part of a sample that, as a whole, favours compounds with a hit. Of some 79,000 tested, about 15% had one in any assay. Active and inactive are the calls of the source. Cut-off read from the data, not from the text of the source: active = growth inhibition above about 70%; inactive = the rest. Starred links: 1 amine or outer side, 2 acyl side, 3 side chain; linkers in the order of their positions; H or OH if unused. Positions of bridges follow the written chain, without caps; N, C: chain ends. Non-standard residues stand in square brackets, D forms with d. Residues, ends and D or L forms follow the SMILES beside them. Chains are numbered I, II in the order given. Actinocin(9to1) = Cc1c2oc3c(C)ccc(C(=O)[*:1])c3nc-2c(C(=O)[*:2])c(N)c1=O; aThr = C[C@H](O)[C@H](N)C(=O)O; NMeV = CN[C@H](C(=O)O)C(C)C; Sar = CNCC(=O)O
Returns: one label drawn from active, inactive

Worked cases, answers included:
- compound: "Cc1cc(NC(=S)SCc2ccc(Cl)cc2)ccc1Cl"
  assignedCategory: "inactive"
- compound: "Cc1c2oc3c(C)ccc(C(=O)N[C@@H]4C(=O)N[C@H](C(C)C)C(=O)N5CCC[C@H]5C(=O)N(C)CC(=O)N(C)[C@@H](C(C)C)C(=O)O[C@H]4C)c3nc-2c(C(=O)N[C@@H]2C(=O)N[C@H](C(C)C)C(=O)N3CCC[C@H]3C(=O)N(C)CC(=O)N(C)[C@@H](C(C)C)C(=O)O[C@H]2C)c(N)c1=O (I: [aThr][dV]P[Sar][NMeV] / II: [aThr][dV]P[Sar][NMeV]; ester I:1-I:C, II:1-II:C; linker I:N-II:N via Actinocin(9to1))"
  assignedCategory: "active"
- compound: "O=C(c1c(F)c(F)c(F)c(F)c1F)c1c(F)c(F)c(F)c(F)c1F"
  assignedCategory: "active"
- compound: "CCOC(=O)C(NC(=O)c1ccccc1)[CH](c1ccccc1)[Sn]([c]1ccccc1)([c]1ccccc1)[c]1ccccc1 (stereo not given)"
  assignedCategory: "inactive"
- compound: "S=C1NC2=C(CSC/C2=C\\c2ccc(Cl)cc2)C(c2ccc(Cl)cc2)N1 (stereo not given)"
  assignedCategory: "inactive"
- compound: "C=Cc1c(C)c(O)cc2c1-c1ccc(O)c(C)c1CC2"
  assignedCategory: "inactive"
- compound: "CN(C)N1C(=O)SCC(c2ccccc2)(c2ccccc2)C1=O"
  assignedCategory: "inactive"
- compound: "O=C(CSS(=O)(=O)O)c1ccccc1"
  assignedCategory: "inactive"

Dear all, I need the recorded test outcome for O=S(=O)(O)CC[S][Sn]([S]CCS(=O)(=O)O)([c]1ccccc1)[c]1ccccc1 , thank you.
active

Record: O=C1C=CC(=O)N1c1ccc(Br)cc1Cl
active

What do you get for Cc1ccc(Cl)c2c(=O)c3ccccc3[nH]c12 ?
inactive
